# Beta-2 adrenergic receptor (Homo sapiens): AC50 values follow; also: assay procedure not described here
# Sequence (P07550 whole entry): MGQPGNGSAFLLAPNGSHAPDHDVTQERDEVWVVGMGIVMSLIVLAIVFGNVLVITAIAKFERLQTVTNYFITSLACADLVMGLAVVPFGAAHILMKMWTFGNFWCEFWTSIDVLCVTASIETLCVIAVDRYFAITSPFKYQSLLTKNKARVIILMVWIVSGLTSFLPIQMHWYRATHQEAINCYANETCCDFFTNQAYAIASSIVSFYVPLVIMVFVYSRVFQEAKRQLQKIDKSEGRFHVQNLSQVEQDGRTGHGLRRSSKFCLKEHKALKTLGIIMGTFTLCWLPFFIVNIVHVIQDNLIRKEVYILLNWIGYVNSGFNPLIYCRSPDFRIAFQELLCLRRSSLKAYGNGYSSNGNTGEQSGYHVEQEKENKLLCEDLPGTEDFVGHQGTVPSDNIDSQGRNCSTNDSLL

# count of solved cases: 4
{"columns": ["compound", "reported"],
 "data": [
  ["CC(C)(C)c1cc(C(C)(C)C)c(NC(=O)c2c[nH]c3ccccc3c2=O)cc1O", "> 10 µM"],
  ["C[C@@H](O)[C@H]1C(=O)N2C(C(=O)O)=C(S[C@@H]3CN[C@H](C(=O)N(C)C)C3)[C@H](C)[C@H]12", "> 10 µM"],
  ["COc1cccc(C2(O)CCCCC2CN(C)C)c1 (stereo unspecified)", "> 10 µM"],
  ["CN1C(=O)C(O)N=C(c2ccccc2Cl)c2cc(Cl)ccc21 (stereo unspecified)", "> 30 µM"]
]}

Provide AC50 values for the following items, in order.
1. CC1=C(C(=O)O)N2C(=O)[C@@H](NC(=O)[C@H](N)c3ccccc3)[C@H]2SC1 [CEPHALEXIN ANHYDROUS]
2. C[C@H](N)[C@H](O)c1cccc(O)c1
3. Cc1ccc(-c2cc(C(F)(F)F)nn2-c2ccc(S(N)(=O)=O)cc2)cc1
4. CCc1c(Cl)c(O)c(Cl)c(O)c1C(=O)O[C@H]1[C@H](O)[C@H](OC)[C@H](OC/C2=C\C=C\C[C@H](O)/C(C)=C/[C@H](CC)[C@@H](O[C@@H]3OC(C)(C)[C@@H](OC(=O)C(C)C)[C@H](O)[C@@H]3O)/C(C)=C/C(C)=C/C[C@@H]([C@@H](C)O)OC2=O)O[C@@H]1C
5. O=C(NCCN1CCOCC1)c1ccc(Cl)cc1 [MOCLOBEMIDE]
6. CCCC(=O)O[C@]1(C(=O)CO)CC[C@H]2[C@@H]3CCC4=CC(=O)CC[C@]4(C)[C@H]3[C@@H](O)C[C@@]21C [HYDROCORTISONE BUTYRATE]
7. c1ccc([C@H]2CN3CCSC3=N2)cc1
8. Fc1ccc(C(c2ccccc2)(c2ccccc2F)n2ccnc2)cc1 (stereo unspecified)

Response:
1: > 10 µM; 2: > 30 µM; 3: > 10 µM; 4: > 10 µM; 5: > 10 µM; 6: > 10 µM; 7: > 30 µM; 8: > 30 µM

Provide AC50 values for the following items, in order.
1. CCCN(CCC)C(=O)C(CCC(=O)O)NC(=O)c1ccccc1 (stereo unspecified) [PROGLUMIDE]
2. O=[N+]([O-])O[C@@H]1CO[C@H]2[C@@H]1OC[C@@H]2O [ISOSORBIDE MONONITRATE]
3. CC(C[N+](C)(C)C)OC(N)=O (stereo unspecified)
4. Cc1ccc(-n2nccn2)c(C(=O)N2CCN(c3nc4cc(Cl)ccc4o3)CC[C@H]2C)c1

Response:
> 30 µM
> 10 µM
> 10 µM
> 30 µM

----------
- study.target: UniProt:P21731
- Sequence (P21731 whole entry): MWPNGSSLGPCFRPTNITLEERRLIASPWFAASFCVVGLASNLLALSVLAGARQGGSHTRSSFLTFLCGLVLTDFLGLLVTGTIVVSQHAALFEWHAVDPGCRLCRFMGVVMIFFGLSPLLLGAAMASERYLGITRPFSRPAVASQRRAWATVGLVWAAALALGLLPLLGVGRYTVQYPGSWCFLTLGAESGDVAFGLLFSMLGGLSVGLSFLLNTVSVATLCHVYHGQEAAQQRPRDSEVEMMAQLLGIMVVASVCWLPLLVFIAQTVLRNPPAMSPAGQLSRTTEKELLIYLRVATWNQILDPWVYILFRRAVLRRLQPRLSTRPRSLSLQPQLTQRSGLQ
- Assay type: functional, cell-based
quantity: AC50

# count of solved cases: 5
{"columns": ["compound", "study.target", "AC50"],
 "data": [
  ["CC[N+]1(C)[C@@H]2CC(OC(=O)[C@H](CO)c3ccccc3)C[C@H]1[C@@H]1O[C@@H]12 (stereo partly drawn) [OXITROPIUM]", "UniProt:P21731", "> 30 µM"],
  ["Cc1cc(OP(=O)(O)O)c2ccccc2c1OP(=O)(O)O [MENADIOL SODIUM DIPHOSPHATE]", "UniProt:P21731", "> 30 µM"],
  ["COc1ccc(C(=O)Nc2ccccc2CCC2CCCCN2C)cc1 (stereo not drawn) [ENCAINIDE]", "UniProt:P21731", "> 30 µM"],
  ["OB1OCc2cc(F)ccc21 [TAVABOROLE]", "UniProt:P21731", "> 30 µM"],
  ["NC1=NCC2c3ccccc3Cc3ccccc3N12 (stereo not drawn) [EPINASTINE]", "UniProt:P21731", "> 30 µM"]
]}

Provide AC50 values for the following items, in order.
1. CCN1CCCC1CNC(=O)c1cc(S(N)(=O)=O)ccc1OC (stereo not drawn) [SULPIRIDE]
2. O=C(Cc1ccc(-c2ccccc2)cc1)Nc1ccccn1 [DIFENPIRAMIDE]
3. CCN(CC)CCNc1ccc(CO)c2sc3ccccc3c(=O)c12 [HYCANTHONE]

Response:
["> 30 µM", "> 30 µM", "23.1 µM"]

Provide AC50 values for the following items, in order.
1. CN1CCN(C2=Nc3ccccc3Sc3ccc(Cl)cc32)CC1 [CLOTHIAPINE]
2. CCC(=O)NCC[C@@H]1CCc2ccc3c(c21)CCO3 [RAMELTEON]
3. Cc1cn([C@H]2C[C@H](N=[N+]=[N-])[C@@H](CO)O2)c(=O)[nH]c1=O [ZIDOVUDINE]

Response:
1: > 10 µM; 2: > 30 µM; 3: > 30 µM

----------
- study.target: D(1A) dopamine receptor (Homo sapiens, UniProt P21728)
- Sequence (P21728 whole entry): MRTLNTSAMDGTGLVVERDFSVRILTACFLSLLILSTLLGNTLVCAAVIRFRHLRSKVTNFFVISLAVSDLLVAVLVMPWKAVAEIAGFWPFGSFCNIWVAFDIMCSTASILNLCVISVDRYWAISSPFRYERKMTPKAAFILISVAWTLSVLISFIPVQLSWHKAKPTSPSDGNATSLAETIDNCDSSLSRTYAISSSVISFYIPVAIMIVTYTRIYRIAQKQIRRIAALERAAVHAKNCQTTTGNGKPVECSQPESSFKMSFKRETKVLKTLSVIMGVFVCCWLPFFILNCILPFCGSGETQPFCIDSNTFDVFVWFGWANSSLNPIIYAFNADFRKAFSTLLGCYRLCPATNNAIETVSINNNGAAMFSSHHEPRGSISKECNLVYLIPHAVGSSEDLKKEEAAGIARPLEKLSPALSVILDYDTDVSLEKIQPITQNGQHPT
Please respond with reported AC50 for every item in the list.

# count of solved cases: 5
{"columns": ["compound", "reported"],
 "data": [
  ["CN1CCN(CC/C=C2/c3ccccc3Sc3ccc(S(=O)(=O)N(C)C)cc32)CC1 [THIOTHIXENE]", "0.0774 µM"],
  ["CN1C(=O)C(O)N=C(c2ccccc2)c2cc(Cl)ccc21 (stereo not given) [TEMAZEPAM]", "> 10 µM"],
  ["C[C@]12CCC(=O)C=C1CC[C@@H]1[C@@H]2[C@@H](O)C[C@@]2(C)[C@H]1CC[C@]2(O)C(=O)CO [HYDROCORTISONE]", "> 10 µM"],
  ["CCOc1ccccc1OCC1CNCCO1 (stereo not given) [VILOXAZINE]", "> 10 µM"],
  ["CCCCc1ncc(/C=C(\\Cc2cccs2)C(=O)O)n1Cc1ccc(C(=O)O)cc1 [EPROSARTAN]", "> 10 µM"]
]}

Provide AC50 values for the following items, in order.
1. Cc1ccc(-c2cc(C(F)(F)F)nn2-c2ccc(S(N)(=O)=O)cc2)cc1 [CELECOXIB]
2. CC(C(=O)O)c1ccc(N2Cc3ccccc3C2=O)cc1 (stereo not given) [INDOPROFEN]
3. NCC(CC(=O)O)c1ccc(Cl)cc1 (stereo not given) [BACLOFEN]
4. Clc1ccc2nsnc2c1NC1=NCCN1 [TIZANIDINE]
5. CC(C)C[C@H]1C(=O)N2CCC[C@H]2[C@]2(O)O[C@](NC(=O)[C@@H]3C=C4c5cccc6[nH]c(Br)c(c56)C[C@H]4N(C)C3)(C(C)C)C(=O)N12 [BROMOCRIPTINE]
6. Cn1nnc2c(C(N)=O)ncn2c1=O [TEMOZOLOMIDE]

Response:
1: > 10 µM; 2: > 30 µM; 3: > 10 µM; 4: > 10 µM; 5: > 10 µM; 6: > 10 µM

----------
- study.target: D(1A) dopamine receptor (Homo sapiens, UniProt P21728)
- Assay type: functional, cell-based
Please respond with reported AC50 for every item in the list.

# count of solved cases: 8
{"columns": ["compound", "study.target", "AC50"],
 "data": [
  ["O=C(OCC(O)CO)c1ccccc1Nc1ccnc2cc(Cl)ccc12 (centres undefined)", "D(1A) dopamine receptor (Homo sapiens, UniProt P21728)", "> 30 µM"],
  ["CN1C(=O)OC(C)(C)C1=O", "D(1A) dopamine receptor (Homo sapiens, UniProt P21728)", "> 10 µM"],
  ["CC(=O)NCCCS(=O)(=O)O [ACAMPROSATE]", "D(1A) dopamine receptor (Homo sapiens, UniProt P21728)", "> 30 µM"],
  ["CCOC(=O)[C@H](CCc1ccccc1)N[C@@H](C)C(=O)N1[C@H](C(=O)O)C[C@@H]2CCC[C@@H]21", "D(1A) dopamine receptor (Homo sapiens, UniProt P21728)", "> 10 µM"],
  ["C[C@@H](O)[C@H]1C(=O)N2C(C(=O)O)=C(S[C@@H]3CN[C@H](C(=O)N(C)C)C3)[C@H](C)[C@H]12", "D(1A) dopamine receptor (Homo sapiens, UniProt P21728)", "> 300 µM"],
  ["COc1cc2nc(N3CCN(C(=O)c4ccco4)CC3)nc(N)c2cc1OC", "D(1A) dopamine receptor (Homo sapiens, UniProt P21728)", "> 10 µM"],
  ["Cc1nc([N+](=O)[O-])cn1-c1ccc([N+](=O)[O-])cc1", "D(1A) dopamine receptor (Homo sapiens, UniProt P21728)", "> 30 µM"],
  ["COc1ccc(CCN(C)CCCC(C#N)(c2cc(OC)c(OC)c(OC)c2)C(C)C)cc1OC (centres undefined)", "D(1A) dopamine receptor (Homo sapiens, UniProt P21728)", "> 30 µM"]
]}

Please find the next compound below.
// CN1C(=O)CCS(=O)(=O)C1c1ccc(Cl)cc1 (centres undefined) : AC50 value = > 10 µM
